Assay: yeast display, Sf9 membrane polyspecificity reagent, FACS + sequencing; frameworks hold sequencing errors
valueType: polyreactivity (PSR sort gate)

Examples with their reported polyreactivity (PSR sort gate) follow.
chainsequence=QVQLQESGGGLVQAGGSLRVSCAASGYISSWYPRGWYRQAPGKEREFVATISPGATTYYADSVKGRFTISRDYAKNTVYLQMNSLKPEDTAVYYCSAGQENNDFYSYWGQGTQVTVSS reported="low polyreactivity"
chainsequence=QVQLVESGGGLVQAGGSLRLSSAASGSTFRTYTMGWYRQAPGKERELVASITSGGRTYYADSVKGRFTISRDNAKNTVYLQMNSMKPEDTAVYYCAADVCKLYDYWGQGTQVTVSS reported="low polyreactivity"
chainsequence=QVQLVESGGGLVQAGGSLRLSCAASGSISRQYALGWYRQAPGTERELVAAITVRGGSTYYADSVKGRFTISRDNAKNTVYLQMNSLKPEDTAVYYCAKYTRYSASYDYWGQGTQVTVSS reported="high polyreactivity"
chainsequence=QVQLVDSGGGLVQAGGSLRLSCAASGFIFGINAMGWYRQAPGKERELVSAISTGDRTNYADSVKRRFTISRDNAKNTVYLQMYSLKPEDTAVYYFAKDWRRNRPYEWTYDYWGQGTQVTVSS reported="low polyreactivity"

Asked: I'd like to know its polyreactivity (PSR sort gate). The sequence in question is QGQLVESGGGLVQAGGSLRLSSAASGRIYLTNAMGWYRPAPGKERELVAAITSGGSTYYADSVKGRFTISRDNAKNTVYLQMNSLKPEDTAVYYCNADTDRYWPYEYDYWGQGTQVTVSS
Given back: low polyreactivity

Asked: Record: QVQLVESGGGLVQAGGSLRLSCAASGSIFQKYAMGWYRPAPGKERELVAAITSSGSTNYADSVKGRFTISRDNAKNTVYLQMNSLKPEDTAVYYCAADRYAGYYSWYYPLWSSKDDYWGQGTQVTVSS
Given back: low polyreactivity

Asked: Proceed to QVQLVESGGGLVQAGGSLRLSCAASGRTFSVYSMGWYRQAPGKERDLVAGITGNGGSTYYADSVKGSFTISRDNAKNTVYLQMNSLKPEDTAVYYCATAYWVIITRGEYGYCGQGTQVTVSS
Given back: low polyreactivity

Asked: Would you mind doing QVQLVESGGGLVQAGGSLRLSCAASGSTFISYAMGWYRQAPGKERELVAAISYRGGSTRYADSVKGRFTISRDNAKNTVYLQMNSLKPEDTAVYYCAAYTRKSHIREYDYWGQGTQVTVSS as well?
Given back: high polyreactivity

Asked: Ok, now QVQLVESGGGLFQAGGSLRLSCAASGFTFRTYAMGWYRQAPGKERELVATIRRAGSTNYADSVKGRFTISRDNAKNTVYLQMNRLKPEDTAVYYCNAGFSHRSDNGIDGYYWGPGTQVTVSS
Given back: high polyreactivity

Asked: Next up: QVQLVESGGGLVQAGGSLRLSCAASGSTFYKYAMGWYRQAPGKERELVAVITDGGSTTYADSVKGRFTISRDNAKNTVYLQMNSLKPEDTAVYYCAADYYLRKTRFESWGQGTQVTVSS
Given back: low polyreactivity

Asked: Please answer likewise for QVQLVESGGGLVQAGGSLRLSCAASGPTFTPYAMGWYRPAPGKERELVAAISGGGSTNYADSVKGRFTISRDNAKNTVFLQMNSLKPEDTAVYYCAKRVYRGRRMDYWGQGTQVTVSS
Given back: high polyreactivity
